Experiment: AUC(0 to 12 hrs) in human at 100 mg, po BID administered for 8 days by LC-MS/MS analysis
Assay type: ADME, organism-based
Settings: in vivo, time 8 day
quantity: AUC at 192 h (ng·h/mL)

>  <input-smiles>
CC#CC(=O)N1CCC[C@H]1c1nc(-c2ccc(C(=O)Nc3ccccn3)cc2)c2c(N)nccn12

>  <unit-abbreviation>
ng·h/mL

>  <result>
926

$$$$

* * *

Test: Half life in human at 175 mg, po administered for 8 days by LC-MS/MS analysis
Type: ADME, organism-based
Details: in vivo, time 8 day
quantity: half-life (h)

>  <input-smiles>
CC#CC(=O)N1CCC[C@H]1c1nc(-c2ccc(C(=O)Nc3ccccn3)cc2)c2c(N)nccn12

>  <result>
1.02

$$$$

* * *

Assay: Cmax in human at 175 mg, po administered for 8 days by LC-MS/MS analysis
Format: ADME, organism-based
Conditions: in vivo, time 8 day
quantity: Cmax (ng/mL)

>  <compound>
CC#CC(=O)N1CCC[C@H]1c1nc(-c2ccc(C(=O)Nc3ccccn3)cc2)c2c(N)nccn12 [ACALABRUTINIB]

>  <quantity>
Cmax

>  <result>
805

$$$$

* * *

Biological target: Tyrosine-protein kinase HCK (Homo sapiens, UniProt P08631)
Sequence (P08631 whole entry): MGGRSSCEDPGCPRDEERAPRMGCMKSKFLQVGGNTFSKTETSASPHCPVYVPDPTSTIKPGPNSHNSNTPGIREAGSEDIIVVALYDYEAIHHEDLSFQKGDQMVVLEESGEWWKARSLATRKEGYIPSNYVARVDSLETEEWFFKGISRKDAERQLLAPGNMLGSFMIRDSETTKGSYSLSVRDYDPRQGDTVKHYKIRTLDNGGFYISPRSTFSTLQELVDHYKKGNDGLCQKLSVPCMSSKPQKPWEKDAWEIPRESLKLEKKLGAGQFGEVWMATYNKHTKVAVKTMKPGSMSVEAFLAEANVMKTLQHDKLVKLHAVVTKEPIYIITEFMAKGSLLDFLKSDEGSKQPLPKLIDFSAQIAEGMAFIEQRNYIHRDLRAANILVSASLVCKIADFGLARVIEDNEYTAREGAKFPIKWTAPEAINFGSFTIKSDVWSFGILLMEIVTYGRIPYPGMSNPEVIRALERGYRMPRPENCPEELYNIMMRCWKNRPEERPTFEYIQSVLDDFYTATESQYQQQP
Assay: Inhibition of recombinant HCK (unknown origin) preincubated for 1 hr in presence of ATP by Z-Lyte assay

>  <molecule>
CC#CC(=O)N1CCC[C@H]1c1nc(-c2ccc(C(=O)Nc3ccccn3)cc2)c2c(N)nccn12 [ACALABRUTINIB]

>  <IC50>
> 1000 nM

$$$$

* * *

Experiment: Half life in human at 100 mg, po BID administered for 8 days by LC-MS/MS analysis
Assay type: ADME, organism-based
Details: in vivo, time 8 day

>  <input-smiles>
CC#CC(=O)N1CCC[C@H]1c1nc(-c2ccc(C(=O)Nc3ccccn3)cc2)c2c(N)nccn12

>  <half-life>
1.13 h

$$$$

* * *

Test: Apparent volume of distribution during terminal phase in human at 400 mg, po administered for 8 days by LC-MS/MS analysis
Format: ADME, organism-based
Conditions: in vivo, time 8 day, read-out: Vz/F
quantity: Vd/F (L)

>  <input-smiles>
CC#CC(=O)N1CCC[C@H]1c1nc(-c2ccc(C(=O)Nc3ccccn3)cc2)c2c(N)nccn12

>  <quantity>
Vd/F

>  <unit-abbreviation>
L

>  <result>
677

$$$$

* * *

Experiment: AUC(0 to 6 hrs) in human at 100 mg, po BID administered for 8 days by LC-MS/MS analysis
Format: ADME, organism-based
Details: in vivo, time 8 day

>  <input-smiles>
CC#CC(=O)N1CCC[C@H]1c1nc(-c2ccc(C(=O)Nc3ccccn3)cc2)c2c(N)nccn12

>  <unit-abbreviation>
ng·h/mL

>  <AUC at 192 h>
826

$$$$

* * *

Test: AUC(0 to 6 hrs) in human at 100 mg, po administered for 8 days by LC-MS/MS analysis
Format: ADME, organism-based
Conditions: in vivo, time 8 day

>  <input-smiles>
CC#CC(=O)N1CCC[C@H]1c1nc(-c2ccc(C(=O)Nc3ccccn3)cc2)c2c(N)nccn12

>  <AUC at 192 h (ng·h/mL)>
584

$$$$

* * *

Assay: Terminal elimination half life in human at 400 mg, po administered for 8 days by LC-MS/MS analysis
Format: ADME, organism-based
Details: in vivo, time 8 day, read-out: LambdaZ (converted)

>  <compound>
CC#CC(=O)N1CCC[C@H]1c1nc(-c2ccc(C(=O)Nc3ccccn3)cc2)c2c(N)nccn12 [ACALABRUTINIB]

>  <k el at 192 h [s⁻¹]>
0.000161

$$$$

* * *

Test: AUC(0 to infinity) in human at 175 mg, po administered for 8 days by LC-MS/MS analysis
Type: ADME, organism-based
Details: in vivo, time 8 day

>  <input-smiles>
CC#CC(=O)N1CCC[C@H]1c1nc(-c2ccc(C(=O)Nc3ccccn3)cc2)c2c(N)nccn12

>  <AUC(0-inf) (ng·h/mL)>
1160

$$$$

* * *

Test: AUC(0 to 24 hrs) in human at 175 mg, po administered for 8 days by LC-MS/MS analysis
Format: ADME, organism-based
Settings: in vivo, time 8 day

>  <input-smiles>
CC#CC(=O)N1CCC[C@H]1c1nc(-c2ccc(C(=O)Nc3ccccn3)cc2)c2c(N)nccn12

>  <AUC at 192 h [ng·h/mL]>
1160

$$$$

* * *

Test: Cmax in human at 100 mg, po administered for 8 days by LC-MS/MS analysis
Assay type: ADME, organism-based
Conditions: in vivo, time 8 day
quantity: Cmax (ng/mL)

>  <input-smiles>
CC#CC(=O)N1CCC[C@H]1c1nc(-c2ccc(C(=O)Nc3ccccn3)cc2)c2c(N)nccn12

>  <unit-abbreviation>
ng/mL

>  <result>
529

$$$$

* * *

Molecular target: UniProtKB P06239
Sequence (P06239 whole entry): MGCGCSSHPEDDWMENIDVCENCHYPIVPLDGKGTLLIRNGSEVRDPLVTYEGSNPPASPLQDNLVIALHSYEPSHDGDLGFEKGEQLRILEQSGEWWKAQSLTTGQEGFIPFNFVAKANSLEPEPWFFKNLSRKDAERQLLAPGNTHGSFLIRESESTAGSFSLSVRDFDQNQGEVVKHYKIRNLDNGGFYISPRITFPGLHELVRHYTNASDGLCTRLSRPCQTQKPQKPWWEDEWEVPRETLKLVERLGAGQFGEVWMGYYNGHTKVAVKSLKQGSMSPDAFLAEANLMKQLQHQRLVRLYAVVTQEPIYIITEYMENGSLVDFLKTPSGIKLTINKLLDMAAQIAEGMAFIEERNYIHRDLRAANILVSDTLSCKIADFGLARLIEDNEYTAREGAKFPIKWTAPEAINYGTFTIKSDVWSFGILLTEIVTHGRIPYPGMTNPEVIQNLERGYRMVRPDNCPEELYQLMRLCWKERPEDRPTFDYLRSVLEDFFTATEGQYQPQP
Test: Inhibition of recombinant LCK (unknown origin) preincubated for 1 hr […] by Z-Lyte assay
pIC50: −log10 of the molar value.

>  <compound>
CC#CC(=O)N1CCC[C@H]1c1nc(-c2ccc(C(=O)Nc3ccccn3)cc2)c2c(N)nccn12 [ACALABRUTINIB]

>  <target>
UniProtKB P06239

>  <pIC50>
< 6.00

$$$$

* * *

Assay: Half life in human at 100 mg, po administered for 8 days by LC-MS/MS analysis
Assay type: ADME, organism-based
Details: in vivo, time 8 day
quantity: half-life (h)

>  <input-smiles>
CC#CC(=O)N1CCC[C@H]1c1nc(-c2ccc(C(=O)Nc3ccccn3)cc2)c2c(N)nccn12

>  <quantity>
half-life

>  <result>
1.16

$$$$

* * *

Experiment: Cmax in human at 100 mg, po BID administered for 8 days by LC-MS/MS analysis
Assay type: ADME, organism-based
Settings: in vivo, time 8 day

>  <input-smiles>
CC#CC(=O)N1CCC[C@H]1c1nc(-c2ccc(C(=O)Nc3ccccn3)cc2)c2c(N)nccn12

>  <Cmax>
827 ng/mL

$$$$

* * *

Assay: AUC(0 to 24 hrs) in human at 400 mg, po administered for 8 days by LC-MS/MS analysis
Assay type: ADME, organism-based
Conditions: in vivo, time 8 day

>  <compound>
CC#CC(=O)N1CCC[C@H]1c1nc(-c2ccc(C(=O)Nc3ccccn3)cc2)c2c(N)nccn12 [ACALABRUTINIB]

>  <AUC at 192 h [ng·h/mL]>
1870

$$$$

* * *

Assay: Apparent volume of distribution during terminal phase in human at 250 mg, po administered for 8 days by LC-MS/MS analysis
Assay type: ADME, organism-based
Settings: in vivo, time 8 day, read-out: Vz/F

>  <compound>
CC#CC(=O)N1CCC[C@H]1c1nc(-c2ccc(C(=O)Nc3ccccn3)cc2)c2c(N)nccn12 [ACALABRUTINIB]

>  <unit-abbreviation>
L

>  <Vd/F>
179

$$$$

* * *

Experiment: AUC(0 to 24 hrs) in human at 100 mg, po administered for 8 days by LC-MS/MS analysis
Type: ADME, organism-based
Conditions: in vivo, time 8 day
quantity: AUC at 192 h (ng·h/mL)

>  <input-smiles>
CC#CC(=O)N1CCC[C@H]1c1nc(-c2ccc(C(=O)Nc3ccccn3)cc2)c2c(N)nccn12

>  <result>
603

$$$$

* * *

Test: Cmax in human at 400 mg, po administered for 8 days by LC-MS/MS analysis
Format: ADME, organism-based
Settings: in vivo, time 8 day

>  <compound>
CC#CC(=O)N1CCC[C@H]1c1nc(-c2ccc(C(=O)Nc3ccccn3)cc2)c2c(N)nccn12 [ACALABRUTINIB]

>  <unit-abbreviation>
ng/mL

>  <Cmax>
902

$$$$

* * *

Assay: Apparent volume of distribution during terminal phase in human at 100 mg, po administered for 8 days by LC-MS/MS analysis
Assay type: ADME, organism-based
Conditions: in vivo, time 8 day, read-out: Vz/F
quantity: Vd/F (L)

>  <molecule>
CC#CC(=O)N1CCC[C@H]1c1nc(-c2ccc(C(=O)Nc3ccccn3)cc2)c2c(N)nccn12 [ACALABRUTINIB]

>  <quantity>
Vd/F

>  <unit-abbreviation>
L

>  <result>
308

$$$$

* * *

Biological target: Tyrosine-protein kinase Lyn (Homo sapiens, UniProt P07948)
Sequence (P07948 whole entry): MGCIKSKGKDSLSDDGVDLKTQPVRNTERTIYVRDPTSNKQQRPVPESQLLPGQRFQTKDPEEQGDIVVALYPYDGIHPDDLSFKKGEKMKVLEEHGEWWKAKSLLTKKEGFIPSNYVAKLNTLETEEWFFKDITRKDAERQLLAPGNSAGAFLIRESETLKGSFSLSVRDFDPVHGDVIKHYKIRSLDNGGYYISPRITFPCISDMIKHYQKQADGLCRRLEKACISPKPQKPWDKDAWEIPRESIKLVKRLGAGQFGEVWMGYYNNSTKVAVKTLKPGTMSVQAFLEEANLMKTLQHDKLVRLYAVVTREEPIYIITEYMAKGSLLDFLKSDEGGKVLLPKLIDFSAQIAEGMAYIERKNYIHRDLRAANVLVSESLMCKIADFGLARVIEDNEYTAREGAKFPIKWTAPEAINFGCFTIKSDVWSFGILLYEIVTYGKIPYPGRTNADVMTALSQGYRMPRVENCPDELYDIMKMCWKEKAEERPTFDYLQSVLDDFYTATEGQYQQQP
Assay: Inhibition of recombinant LYN (unknown origin) preincubated for 1 hr in presence of ATP by Z-Lyte assay
pIC50: −log10 of the molar value.

>  <input-smiles>
CC#CC(=O)N1CCC[C@H]1c1nc(-c2ccc(C(=O)Nc3ccccn3)cc2)c2c(N)nccn12

>  <target>
Tyrosine-protein kinase Lyn (Homo sapiens, UniProt P07948)

>  <pIC50>
< 6.00

$$$$

* * *

Target: Tyrosine-protein kinase TXK (Homo sapiens, UniProt P42681)
Sequence (P42681 whole entry): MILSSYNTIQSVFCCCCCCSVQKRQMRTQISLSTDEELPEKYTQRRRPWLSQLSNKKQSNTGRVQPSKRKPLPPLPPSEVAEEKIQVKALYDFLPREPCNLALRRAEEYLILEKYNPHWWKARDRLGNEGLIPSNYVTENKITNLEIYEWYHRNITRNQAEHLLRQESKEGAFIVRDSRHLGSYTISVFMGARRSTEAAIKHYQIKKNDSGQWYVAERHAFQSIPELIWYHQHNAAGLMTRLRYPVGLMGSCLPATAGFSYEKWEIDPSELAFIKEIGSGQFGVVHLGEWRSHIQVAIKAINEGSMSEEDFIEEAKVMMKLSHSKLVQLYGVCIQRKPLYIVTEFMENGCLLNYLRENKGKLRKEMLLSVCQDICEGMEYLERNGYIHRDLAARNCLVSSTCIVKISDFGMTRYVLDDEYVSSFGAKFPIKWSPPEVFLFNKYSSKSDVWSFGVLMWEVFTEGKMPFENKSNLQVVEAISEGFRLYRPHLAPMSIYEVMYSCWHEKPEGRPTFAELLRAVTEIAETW
Experiment: Inhibition of recombinant TXK (unknown origin) preincubated for 1 hr in presence of ATP by Z-Lyte assay
quantity: IC50

>  <compound>
CC#CC(=O)N1CCC[C@H]1c1nc(-c2ccc(C(=O)Nc3ccccn3)cc2)c2c(N)nccn12 [ACALABRUTINIB]

>  <quantity>
IC50

>  <result>
368 nM

$$$$
